Provenance of the data: patent US12599672B2

Parameter: DC50. Scope: all listed entries.
target: KRAS (Homo sapiens); construct: endogenous in cells; host or cells: KE39 (KRAS amplified) cells; assay: KRASamp MSD assay; format: cell-based; conditions: KE39 (KRAS amplified) cells, treated with test compounds for 24 hr, MSD readout of KRAS degradation
Sequence (P01116 1-188 isoform P01116-2): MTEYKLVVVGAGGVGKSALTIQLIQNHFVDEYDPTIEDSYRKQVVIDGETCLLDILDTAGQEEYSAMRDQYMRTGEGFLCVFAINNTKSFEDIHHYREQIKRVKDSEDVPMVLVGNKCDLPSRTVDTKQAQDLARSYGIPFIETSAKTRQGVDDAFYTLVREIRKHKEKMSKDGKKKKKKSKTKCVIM

Some compounds with known DC50 results, for comparison:
compound	study system	observed property	recorded result
CCc1c(F)ccc2cc(O)cc(-c3ncc4c(N5CCC[C@@](C)(O)C5)nc(OC[C@@]56CCCN5[C@H](COC(=O)N5CCC(C)(CN7CCC(c8ccc9c(c8)n(C)c(=O)n9C8CCC(=O)NC8=O)CC7)CC5)CC6)nc4c3F)c12 (some centres unmarked)	KRAS (Homo sapiens)	DC50	< 1 nM
C#Cc1c(F)ccc2cc(O)cc(-c3ncc4c(N5CCC[C@@](C)(O)C5)nc(OC[C@@]56CCCN5[C@H](COC(=O)N5CCC7(CCC(CN8CCC(c9ccc%10c(c9)n(C)c(=O)n%10C9CCC(=O)NC9=O)CC8)CC7)CC5)CC6)nc4c3F)c12 (some centres unmarked)	KRAS (Homo sapiens)	DC50	1 to 10 nM
C#Cc1c(F)ccc2cc(O)cc(-c3ncc4c(N5CCCC(C#N)CC5)nc(OC[C@@]56CCCN5[C@H](COC(=O)N5CCC(CN7CCC(c8ccc9c(c8)n(C)c(=O)n9C8CCC(=O)NC8=O)CC7)CC5)CC6)nc4c3F)c12 (some centres unmarked)	KRAS (Homo sapiens)	DC50	1 to 10 nM
CCc1c(F)ccc2cc(O)cc(-c3ncc4c(N5CCC[C@@](C)(O)C5)nc(OC[C@@]56CCCN5[C@H](COC(=O)N5CCC(C#CC7CCN(c8ccc9c(c8)n(C)c(=O)n9C8CCC(=O)NC8=O)CC7)CC5)CC6)nc4c3F)c12 (some centres unmarked)	KRAS (Homo sapiens)	DC50	< 1 nM
C#Cc1c(F)ccc2cc(O)cc(-c3ncc4c(N5CCC[C@@](C)(O)C5)nc(OC[C@@]56CCCN5[C@H](COC(=O)N5CCC7(CCC(N8CCC(c9ccc%10c(c9)n(C)c(=O)n%10C9CCC(=O)NC9=O)CC8)CC7)CC5)CC6)nc4c3F)c12 (some centres unmarked)	KRAS (Homo sapiens)	DC50	< 1 nM

So what's the measured DC50 for this one? CCc1c(F)ccc2cc(O)cc(-c3ncc4c(N5CCC[C@@](C)(O)C5)nc(OC[C@@]56CCCN5[C@H](COC(=O)N5CCC(CN7CCC(c8ccc9c(C%10CCC(=O)NC%10=O)nn(C)c9c8)CC7)CC5)CC6)nc4c3F)c12 (some centres unmarked)
< 1 nM

Same question, Cn1c(=O)n(C2CCC(=O)NC2=O)c2ccc(C3CCN(CC4CCN(C(=O)OC[C@@H]5CC[C@]6(COc7nc(N8CCC[C@@](C)(O)C8)c8cnc(-c9cc(O)cc%10ccc(F)c(Cl)c9%10)c(F)c8n7)CCCN56)CC4)CC3)cc21 (some centres unmarked) this time
< 1 nM

----------
target: KRAS G12V (Homo sapiens, UniProt P01116, G12V); construct: SW620-KRAS (G12V)-HiBit-KI cell (Pharmaron); host or cells: SW620-KRAS (G12V)-HiBit-KI cells (HiBiT knock-in at the endogenous KRAS locus); experiment: KRAS G12V HiBit assay; type: cell-based; conditions: SW620-KRAS (G12V)-HiBit-KI cells, compound treatment for 24 hours, class symbols
Sequence (P01116 1-188 isoform P01116-2 G12V): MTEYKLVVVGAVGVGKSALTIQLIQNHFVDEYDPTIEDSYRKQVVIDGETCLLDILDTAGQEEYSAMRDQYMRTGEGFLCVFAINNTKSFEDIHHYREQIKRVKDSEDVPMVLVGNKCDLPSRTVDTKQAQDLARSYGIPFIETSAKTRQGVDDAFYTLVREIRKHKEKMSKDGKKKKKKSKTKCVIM
Parameter: DC50. Scope: all listed entries.

Some compounds with known DC50 results, for comparison:
compound	study system	DC50
CCc1c(F)ccc2cc(O)cc(-c3ncc4c(N5CCC[C@@](C)(O)C5)nc(OC[C@]56CCCN5[C@H](COC(=O)N5CCC(CCOc7ccc8c(c7)n(C)c(=O)n8C7CCC(=O)NC7=O)CC5)CC6)nc4c3F)c12 (stereo partly drawn) [Compound 300]	KRAS G12V (Homo sapiens, UniProt P01116, G12V)	< 10 nM
Cn1c(=O)n(C2CCC(=O)NC2=O)c2ccc(C3CCN(CC4CCN(C(=O)CN5CCN(c6nccc(-c7noc([C@@]8(C)CCCc9sc(N)c(C#N)c98)n7)n6)CC5)CC4)CC3)cc21 (stereo partly drawn) [Compound 224]	KRAS G12V (Homo sapiens, UniProt P01116, G12V)	> 100 nM

Please turn your attention to the following entry.
So what's the measured DC50 for this one? C#Cc1c(F)ccc2cc(O)cc(-c3ncc4c(N5CCCC(F)(F)C5)nc(OCC5(CN6CCN(CC7CCN(c8ccc9c(c8)n(C)c(=O)n9C8CCC(=O)NC8=O)CC7)CC6)CC5)nc4c3F)c12 (stereo not drawn) [Compound 17]
> 100 nM
